- Tested on: MS2 coat protein
- method summary: apparent KD of MS2 coat protein; designed switch direction (-1 OFF switch, 1 ON switch): 1; higher = weaker reporter binding
- condition parameters: Eterna round: R95; input ligand: microRNA oligo, concentration not stated
Can you tell me apparent KD of MS2 coat protein for the items I'm about to list?
Record the value in nM, omitting the unit from your answer.

Supply measured apparent KD of MS2 coat protein of AGUCCAGCCUGAGCUGGACAAAAGCAUGUACAUGAGGAUCACCCAUGUCAUGUACAGGCUUUUUGCUCGUCUUAAUA [Zipper 49 - 7] (puzzle: Sensor for hsa-mir-208a) in your reply.
16.8

Supply measured apparent KD of MS2 coat protein of UCUUGGUUUUUGCUCGUUUUUUGUGUUGAACAUGAGGAUCACCCAUGUAUUGUACGGUCCAGUUUAGUAGUGGUCCG [JMF 32] (puzzle: Sensor for hsa-mir-208a) in your reply.
13.5

Supply measured apparent KD of MS2 coat protein of AUCCUACAUGAGGAUCACCCAUGUGACGCCUCAAUAGGAUAUGCGUGUGCCUUGGCGCAUGCAGAAGGAUUGAAGC [JL Aveso mod 1] (puzzle: Same State 1) in your reply.
295

Supply measured apparent KD of MS2 coat protein of AUAAGUUCGAUGCUCGUCUCUCCGUACAAACAUGAGGAUCACCCAUGUGGUCAGGAAGUAGCCCGACCAGUAUGGCC [Leedqu] (puzzle: Sensor for hsa-mir-208a) in your reply.
24.6

Supply measured apparent KD of MS2 coat protein of GGUCCAGCCUGAGCUGGACAAAAGCAUGUACAUGAGGAUCACCCAUGUCAUGUACAAGCUUUUUGCUCGUCUUAAGU [Mat - hsa-mir-208a - 86] (puzzle: Sensor for hsa-mir-208a) in your reply.
16.8
